# credit: paper PMC6691788

Recorded CC50 by entry
- Tested on: DU-145
- Procedure details: NCI 60 cell panel SRB screen
- Assay type: cell-based
- Particulars: Homo sapiens; DU-145, 5 log dose, 48 h; read-out: LC50 (the source's name)

// below: answered compounds
>  <Compound>
O=C(Nc1ccc(Cl)cc1)Nc1ccc(Oc2nncc3ccccc23)cc1

>  <Value observed>
4.88 µM

$$$$
>  <Compound>
O=C(Nc1ccccc1)Nc1ccc(Oc2nnc(Cl)c3ccccc23)cc1 [Compound 13a]

>  <Value observed>
> 25 µM

$$$$
>  <Compound>
Clc1ccc(Nc2nnc(CNc3ccccc3)c3ccccc23)cc1 [Compound 16a]

>  <Value observed>
> 25 µM

$$$$
>  <Compound>
Clc1ccc(Nc2nnc(COc3ccccc3)c3ccccc23)cc1 [Compound 17a]

>  <Value observed>
> 25 µM

$$$$

Given the compound COc1cccc(NCc2nnc(Nc3ccc(Cl)cc3)c3ccccc23)c1 [Compound 16d] , write its reported CC50.
17.2 µM

Given the compound Cc1nnc(Nc2ccc(NC(=O)Nc3ccc(Cl)cc3)cc2)c2ccccc12 , write its reported CC50.
66.9 µM

Given the compound O=C(Nc1ccc(Cl)cc1)Nc1ccc(Nc2nncc3ccccc23)cc1 , write its reported CC50.
> 100 µM
